# measurement target: CD73 in whole blood (Homo sapiens (Human))
# Sequence (P21589 27-574): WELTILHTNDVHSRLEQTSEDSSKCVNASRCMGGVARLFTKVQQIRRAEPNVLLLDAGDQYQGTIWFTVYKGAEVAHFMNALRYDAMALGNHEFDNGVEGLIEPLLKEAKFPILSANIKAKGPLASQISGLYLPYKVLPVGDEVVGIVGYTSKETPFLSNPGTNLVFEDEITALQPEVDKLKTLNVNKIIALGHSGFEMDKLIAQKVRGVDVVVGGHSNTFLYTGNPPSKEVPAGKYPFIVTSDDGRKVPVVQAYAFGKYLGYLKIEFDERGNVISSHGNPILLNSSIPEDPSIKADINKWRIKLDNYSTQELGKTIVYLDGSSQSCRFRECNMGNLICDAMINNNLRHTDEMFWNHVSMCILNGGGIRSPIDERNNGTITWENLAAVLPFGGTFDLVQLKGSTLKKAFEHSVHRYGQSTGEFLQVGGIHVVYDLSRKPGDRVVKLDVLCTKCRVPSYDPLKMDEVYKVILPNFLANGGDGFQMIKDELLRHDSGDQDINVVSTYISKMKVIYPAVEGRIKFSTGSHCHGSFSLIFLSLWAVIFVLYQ
# experiment description: Whole blood AMP Glo assay
# test parameters: whole blood of healthy volunteers, 10 μM AMP, 30 min pre-incubation, 15 min at 37° C., levamisole 1.5 mM
pIC50: −log10 of the molar value. Counter-ions that a name gives are not always drawn.
measurement kind: pIC50

- compound: "O=c1[nH]cc(-c2cc3c(N4CCC(OCCN5CCCCC5)C4)ncnc3o2)c(=O)[nH]1 (stereo not shown) [Example 7, formate salt]"
  meas value: 7.90
- compound: "CN1CCOC(COC2CCN(c3ncnc4sc(-c5c[nH]c(=O)[nH]c5=O)cc34)C2)C1 (stereo not shown)"
  meas value: 6.60
- compound: "O=c1[nH]cc(-c2cc3c(N4CCC(OCCN5CCCCC5)C4)ncnc3s2)c(=O)[nH]1 (stereo not shown)"
  meas value: 7.33
- compound: "O=c1[nH]cc(-c2cc3c(N4CC(F)(F)C5(CC5)C4)ncnc3o2)c(=O)[nH]1"
  meas value: 6.19
- compound: "CCC1(C)CCN(c2ncnc3nn(-c4c[nH]c(=O)[nH]c4=O)cc23)C1 (stereo not shown)"
  meas value: 8.67
- compound: "O=c1[nH]cc(-c2cc3c(N4CC(O)C(F)(F)C4)ncc(Cl)n3n2)c(=O)[nH]1 (stereo not shown)"
  meas value: 8.30
- compound: "O=c1[nH]cc(-c2cc3c(N4CCC(OCCN5CCC(F)(F)CC5)C4)ncnn3c2)c(=O)[nH]1 (stereo not shown)"
  meas value: 7.30
- compound: "O=c1[nH]cc(-n2cc3c(N4C[C@H]5COC[C@H]5C4)ncnc3n2)c(=O)[nH]1"
  meas value: 8.26
- compound: "CC1(C)CN(c2ncnc3oc(-c4c[nH]c(=O)[nH]c4=O)cc23)CC1(F)F"
  meas value: 6.35
- compound: "CC1(C)CN(c2nccc3nn(-c4c[nH]c(=O)[nH]c4=O)cc23)CC1(F)F"
  meas value: 7.80
- compound: "O=c1[nH]cc(-c2cc3c(N4CC(OCCN5CCCCC5)C(F)(F)C4)ncnc3s2)c(=O)[nH]1 (stereo not shown) [Example 5, formate salt]"
  meas value: 6.74
- compound: "O=c1[nH]cc(-n2cc3c(N4CC(F)(F)C5(CCCC5)C4)ncnc3n2)c(=O)[nH]1"
  meas value: 8.45
- compound: "CC1(C)CN(c2ncc(F)c3nn(-c4c[nH]c(=O)[nH]c4=O)cc23)CC1(F)F"
  meas value: 7.80
- compound: "O=c1[nH]cc(-c2cc3c(N4CCC(OCCN5CCCCC5)C4)ncnn3c2)c(=O)[nH]1 (stereo not shown)"
  meas value: 7.53
- compound: "O=c1[nH]cc(-c2cc3c(N4CCC(OCCO)C4)ncnc3s2)c(=O)[nH]1 (stereo not shown)"
  meas value: 5.50
- compound: "CC1(C)CN(c2ncc(C#N)c3nn(-c4c[nH]c(=O)[nH]c4=O)cc23)CC1(F)F"
  meas value: 7.33
- compound: "O=c1[nH]cc(-n2cc3c(N4CC(F)(F)C5(CCC5)C4)ncc(Cl)c3n2)c(=O)[nH]1"
  meas value: 7.59
- compound: "O=C(OC1CN(c2ncnc3oc(-c4c[nH]c(=O)[nH]c4=O)cc23)CC1(F)F)N1CC2CCC(C1)O2 (stereo not shown)"
  meas value: 6.86
- compound: "Cc1nc(N2CC(C)(C)C(F)(F)C2)c2cn(-c3c[nH]c(=O)[nH]c3=O)nc2n1"
  meas value: 8.82
- compound: "O=c1[nH]cc(-c2cc3c(N4CC(F)(F)C5(CCCC5)C4)ncnc3o2)c(=O)[nH]1"
  meas value: 5.70
- compound: "CN1CCOC(COC2CN(c3ncnc4sc(-c5c[nH]c(=O)[nH]c5=O)cc34)CC2(F)F)C1 (stereo not shown) [Example 4.3, formate salt]"
  meas value: 6.29
- compound: "O=c1[nH]cc(-c2cc3c(N4CCC(OCc5ccccn5)C4)ncnc3s2)c(=O)[nH]1 (stereo not shown) [Example 4.1, formate salt]"
  meas value: 6.11
- compound: "CC1(C)CN(c2ncc(Cl)n3nc(-c4c[nH]c(=O)[nH]c4=O)cc23)CC1(F)F"
  meas value: 7.42
- compound: "CC1(C)CCN(c2ncc(F)n3nc(-c4c[nH]c(=O)[nH]c4=O)cc23)C1"
  meas value: 6.35
- compound: "COC1CN(c2ncc(Cl)n3nc(-c4c[nH]c(=O)[nH]c4=O)cc23)CC1(F)F (stereo not shown)"
  meas value: 7.70
- compound: "CC1(C)CN(c2ncnn3cc(-c4c[nH]c(=O)[nH]c4=O)cc23)CC1(F)F"
  meas value: 5.80
- compound: "O=c1[nH]cc(-c2nc3ncnc(N4CCC(OCCN5CCCCC5)C4)c3s2)c(=O)[nH]1 (stereo not shown)"
  meas value: 7.56
- compound: "CC1(C)CCN(c2ncnc3sc(-c4c[nH]c(=O)[nH]c4=O)cc23)C1"
  meas value: 5.16
- compound: "O=c1[nH]cc(-c2cc3c(N4CCC(CCO)C4)ncnc3s2)c(=O)[nH]1 (stereo not shown)"
  meas value: 5.06
- compound: "O=c1[nH]cc(-c2nc3c(N4CCC(OCCN5CCCCC5)C4)ncnc3[nH]2)c(=O)[nH]1 (stereo not shown)"
  meas value: 7.25
- compound: "CC1(C)CCN(c2ncc(Cl)n3nc(-c4c[nH]c(=O)[nH]c4=O)cc23)C1"
  meas value: 7.11
